Attribution: patent US11053304

TESTED_SYSTEM: SARS-CoV-2 Receptor Binding Domain (RBD) protein (SARS-CoV-2, UniProt P0DTC2 319-541)
ASSAY_REMARKS: SPR, scFv captured via anti-V5, RBD as analyte
MEASUREMENT_TYPE: Kd
Report field: quantity (unit follows the number).

The examples below pair each entry with its known result.
COVID19_P19_H07 (scFv, V domains shown) VH: EVQLVESGGGLVQPGGSLRLSCAASGFTFGTSAVSWVRQAPGKGLEWVSAISGSGGSTYYADSVKGRFTISRDNSKNTLYLQMNSLRAEDTAVYYCVTQRDNSRDYFPHYFHDMDVWGQGTLVTVSS VL: DIVMTQSPLSLPVTPGEPASISCRSSQSLLYSDGDTYLDWYLQKPGQSPQLLIYLGSIRAPGVPDRFSGSGSGTDFTLKISRVEAEDVGVYYCMQGLETPWTFGGGTKVEIKR : 37 nM
COVID19_P19_F02 (scFv, V domains shown) VH: EVQLVESGGGLVQPGGSLRLSCAASGFTFSSYGMHWVRQAPGKGLEWVSAYSGSGGYTYFADSVKGRFTISRDNSKNTLYLQMNSLRAEDTAVYYCVTNMDNSRDYFPHYFHDMDVWGQGTLVTVSS VL: DIVMTQSPLSLPVTPGEPASISCKSSQSLLHINGFNYLDWFLQKPGQSPQLLIYLGSNRAPGVPDRFSGSGSGTDFTLKISRVEAEDVGVYYCQQSLQNPRTFGGGTKVEIKR : 36.1 nM
COVID19_P08_G02 (scFv, V domains shown) VH: EVQLVESGGGLVQPGGSLRLSCAASGFTFSSYGMHWIRQAPGKGLEWVSAVSASGDRTHYADSVKGRFTISRDNSKNTLYLQMNSLRAEDTAVYYCVTNLDNSRDYFPHYFHDMDVWGQGTLVTVSS VL: DIVMTQSPLSLPVTPGEPASISCRSSQSLVHSDGYTYLNWYLQKPGQSPQLLIYVGSYRASGVPDRFSGSGSGTDFTLKISRVEAEDVGVYYCMQASQWPPTFGGGTKVEIKR : 2.71 nM

Field: next binder
Task: Param item = COVID19_P19_B04 (scFv, V domains shown) VH: EVQLVESGGGLVQPGGSLRLSCAASGITFNNYAMTWVRQAPGKGLEWVSGISGSGGSTYYADSVKGRFTISRDNSRNTLYLQMNSLRAEDTAVYYCVTQRDNPVDYFPHYFHDMDVWGQGTLVTVSS VL: DIVMTQSPLSLPVTPGEPASISCRSSQSLLYSDGDTYLDWYLQKPGQSPQLLIYLGSIRAPGVPDRFSGSGSGTDFTLKISRVEAEDVGVYYCMQALQVPWTFGGGTKVEIKR ; retrieve measured Kd.
Result: 22 nM
